MIC listing for selected compounds.
# Tested on: Escherichia coli
# assay.remarks: Antibacterial activity against Escherichia coli TOP10 harboring pOXA-97
# Type: functional
State just the number; it will be interpreted in µg/mL.

**Query** Requested read-out: MIC. Entry: C[C@@H](O)[C@H]1C(=O)N2C(C(=O)O)=C(SCCNC=N)C[C@H]12 [IMIPENEM ANHYDROUS]
**Result** 2

**Query** Next compound up: C[C@@H](O)[C@H]1C(=O)N2C(C(=O)O)=C(S[C@@H]3CN[C@H](C(=O)N(C)C)C3)[C@H](C)[C@H]12 [MEROPENEM]
**Result** 0.12

The reported numbers originate from ChEMBL document CHEMBL1255327.
